test system: Escherichia coli K-12 JR 66/W 677; test: MIC, standard serial dilution method; type: cell-based; details: Escherichia coli, 18 h, read-out: Minimal inhibitory concentration
Reported Property: MIC (µg/mL)
Note: unit µg/mL is implicit; provide only the numeric part.

# lookup: MIC of NC[C@@H]1O[C@H](O[C@H]2[C@@H](O)[C@H](O[C@@H]3[C@@H](O)[C@H](N)C[C@H](N)[C@H]3O[C@H]3O[C@H](CO)[C@@H](O)C[C@H]3N)O[C@@H]2CO)[C@H](N)[C@@H](O)[C@@H]1O [LVB, lividomycin B, reference compound]
6.25

And the next one, CNC[C@H]1O[C@H](O[C@H]2[C@H](O[C@@H]3O[C@H](CO)[C@@H](O[C@H]4O[C@@H](CN)[C@@H](O)[C@H](O)[C@H]4N)[C@H]3O)[C@@H](O)[C@H](N)C[C@@H]2N)[C@H](N)C[C@@H]1O [MALVB, 6'-deoxy-6'-methylaminolividomycin B] ?
3.12

How about NC[C@@H]1O[C@H](O[C@H]2[C@@H](O)[C@H](O[C@@H]3[C@@H](O)[C@H](N)C[C@H](N)[C@H]3O[C@H]3O[C@H](CNCCO)[C@@H](O)C[C@H]3N)O[C@@H]2CO)[C@H](N)[C@@H](O)[C@@H]1O [HALVB] ?
6.25

Same lookup for NC[C@@H]1O[C@H](O[C@H]2[C@@H](O)[C@H](O[C@@H]3[C@@H](O)[C@H](N)C[C@H](N)[C@H]3O[C@H]3O[C@H](CN)[C@@H](O)C[C@H]3N)O[C@@H]2CO)[C@H](N)[C@@H](O)[C@@H]1O [ALVB, 6'-amino-6'-deoxylividomycin B] , please.
1.56
